experiment: aqueous solubility; details: aqueous, pH 4.3, aqueous buffer
VALUE_KIND: solubility

Reported solubility for C[C@@H](c1nc(-c2ccc(C#N)cc2)cs1)C(Cn1cncn1)(OCOP(=O)(O)O)c1ccc(F)cc1F (stereo partly shown) : what is it?
5000 to 6000 µg/mL

###

assay: aqueous solubility; conditions: aqueous, pH 7, aqueous buffer
VALUE_KIND: solubility

Entry under review: C[C@@H](c1nc(-c2ccc(C#N)cc2)cs1)C(Cn1cncn1)(OCOP(=O)(O)O)c1ccc(F)cc1F (stereo partly shown) [Example 2] . Reported solubility?
> 10000 µg/mL
